Assay: yeast display, Sf9 membrane polyspecificity reagent, FACS + sequencing; frameworks hold sequencing errors
value_type: polyreactivity (PSR sort gate)

QEQLQESGGGQVQAGGSLLLSCAASGNIIRYYYMGWYRQAPGKERELVAAITYGTSTNYADSVKGRFTISRDNAKNTVYLQMNSLKPEDTAVYYFAVDVNYGDPLDNWGQGTQVTVSC high polyreactivity
QVQLVESGGGLVQAGGSLRLSCAASGRTFQLYAMGWYRQAPGKERDLVAAISARGGSTYYADSVKGRFTISRDNAKNTVYLQMNSLKPEDTAVYYCNADYNVVLSRVIYARGYWGQGTQVTVSS high polyreactivity
QVQLVESGGGLVQAGGSLRLSCAASGFIFTGYAMGWYRQAPGTEREFVAAISYSGGSTYADSVKGRFTISRDNAKNTVYLQMNSLKPEDTAVYYCNARQGLWRYTAENDYWGQGTHVTVSS low polyreactivity
QVQLVESGGGLVQAGGSLRLSCAASGFIFTVNAMGRYRQAPGKERELVAAITQSGGNRSYADSVKGRFTISSDKAKNTVYLQMNSLKPEDTAVYYCNASSDTSRYGVSTYYYWGQGTQVTVSS low polyreactivity
QVQLVESGGGLVQAGGSLRLSCAPSGRIFQWYAMGWYRQAPGKERELVAAIRNGGTTNYADSVKGRFTISRDNAKNTVYLQMNSVIPVDTAVYYCNADKYRTWDFQPRYPGGYWGQGTQVTVSS low polyreactivity
